biological target: A. ureafaciens sialidase (Paenarthrobacter ureafaciens, UniProt Q5W7Q2); assay: Sialidase inhibition assay; assay type: biochemical, Arthrobacter ureafaciens; settings: read-out: Percentage inhibition, A. ureafaciens
Reported inhibition at 100 µM values follow for various compounds
# output: bare number, implied unit %

Examples from the recorded data:
* O=C(CO)N[C@@H]1[C@@H](O)[C@H](F)[C@](F)(C(=O)O)O[C@H]1[C@H](O)[C@H](O)CO | 96.1
* CC(=O)N[C@@H]1[C@@H](O)[C@@H](F)[C@](F)(C(=O)O)O[C@H]1[C@H](O)[C@H](O)CN=[N+]=[N-] | 99.9
* CC(=O)N[C@@H]1[C@@H](O)[C@@H](F)[C@](F)(C(=O)O)O[C@H]1[C@H](O)[C@H](O)CO | 99.9
* [N-]=[N+]=N[C@@H]1[C@@H](O)[C@H](F)[C@](F)(C(=O)O)O[C@H]1[C@H](O)[C@H](O)CO | 75.2
* CC(=O)N[C@@H]1[C@@H](O)[C@H](F)[C@](F)(C(=O)O)O[C@H]1[C@H](O)[C@H](O)CN=[N+]=[N-] | 99.9

Then this compound:
Query: Can you look up the measured inhibition at 100 µM of `CC(=O)N[C@@H]1[C@@H](O)[C@H](F)[C@](F)(C(=O)O)O[C@H]1[C@H](O)[C@H](O)CO` for me?
Result: 99.2
